Entries annotated with measured pIC50
System: HTT mRNA
assay.notes: Gene panel canonical junction qPCR assay, decrease in CJ mRNA, Table 3
Type: cell-based
test.context: decrease in CJ mRNA levels, canonical junction qPCR, gene panel
pIC50: −log10 of the molar value.

compound	pIC50
Cc1cn2cc(NC(=O)c3ccc(N4CCC(NC5CC5)CC4)c4cc(CF)nn34)cc(F)c2n1	6.00 to 7.00
COc1nc2c(C(=O)Nc3cccc4c3cnn4C)ccc(N3C[C@H](C)N[C@@H](C)C3)c2s1	< 5.00

stdin: Which value of pIC50 has been reported for `CN[C@H]1CCN(c2ccc(C(=O)Nc3cc(F)c4nn(C)cc4c3)c3nc(OC)sc23)C1` in the records?
stdout: 5.00 to 6.00

stdin: Which value of pIC50 has been reported for COc1nc2c(C(=O)Nc3cc(C)c4nn(C)cc4n3)ccc(N3C[C@H](C)N[C@@H](C)C3)c2s1 [Compound 738, 2,2,2-trifluoroacetate] in the records?
stdout: < 5.00

* * *

Tested on: MYB mRNA
assay.notes: Gene panel canonical junction qPCR assay, decrease in CJ mRNA, Table 3
Type: cell-based
test.context: decrease in CJ mRNA levels, canonical junction qPCR, gene panel
pIC50: −log10 of the molar value.
measure.name: pIC50

The following compounds have reported results that may help.
compound	target.entity	pIC50
CNS(=O)(=O)CCc1nc(C)cn2cc(NC(=O)c3ccc(N4CCC(NC5CC5)CC4)c4cn(C)nc34)nc12	MYB mRNA	5.00 to 6.00
CCNC1CCN(c2ccc(C(=O)Nc3cc4cn(C)nc4cc3OC)c3nn(C)cc23)C(C)(C)C1 (stereo not shown)	MYB mRNA	< 5.00
COc1nc2c(C(=O)Nc3cn4cc(C)nc4c(OC)n3)ccc(N3C[C@H](C)N[C@@H](C)C3)c2s1 [Compound 759, 2,2,2-trifluoroacetate]	MYB mRNA	> 7.00
Cn1cc2cc(NC(=O)c3ccc(N4CCC(NC5CC5)CC4)c4cn(C)nc34)cc(CNC3(C)COC3)c2n1	MYB mRNA	< 5.00
Cn1cc2cc(NC(=O)c3ccc(N4CCC(NC5CC5)CC4)c4cn(C)nc34)cc(CNc3cn[nH]c3)c2n1	MYB mRNA	5.00 to 6.00

stdin: Give the reported pIC50 for `Cc1cn2cc(NC(=O)c3ccc(N4CCC(NC5CC5)CC4)c4cn(C)nc34)nc2c(CN2CCCCS2(=O)=O)n1` (system: MYB mRNA).
stdout: < 5.00

stdin: Give the reported pIC50 for `COc1nc2c(C(=O)Nc3ccc4nn(C)cc4c3)ccc(N3C[C@H](C)N[C@@H](C)C3)c2s1` (system: MYB mRNA).
stdout: > 7.00

* * *

Tested on: HTT mRNA
assay.notes: Splicing RT-qPCR assay, canonical (CJ) and alternative (AJ) junction mRNA, K562 cells
Assay type: cell-based
test.context: Homo sapiens, K562.3 cells, 24 hours, read-out: HTT AJ (AC50, increase in AJ mRNA)
Where a name gives a salt, the structure may show the parent alone.
measure.name: AC50

The following compounds have reported results that may help.
compound	AC50
Cc1cn2nc(C(=O)Nc3ccc(N4C[C@@H](C)N[C@@H](C)C4)c4cc[nH]c34)cc(C)c2n1	1 to 10 µM
Cc1cn2cc(NC(=O)c3ccc(N4C[C@@H](C)N[C@@H](C)C4)c4[nH]c(C)nc34)cc(F)c2n1	1 to 10 µM
CCNC1CCN(c2ccc(C(=O)Nc3cn4cc(C)nc4c(OC)n3)c3nn(C)cc23)CC1	0.1 to 1 µM
Cc1cn2cc(NC(=O)c3ccc(N4C[C@@H](C)N[C@@H](C)C4)c4[nH]nnc34)cc(F)c2n1 [Compound 243, hydrochloride]	> 10 µM
CCN[C@@H]1CCN(c2cc(O)c(C(=O)Nc3cc(F)c4nn(C)cc4c3)c3nn(C)cc23)C1	1 to 10 µM

stdin: Give the reported AC50 for `CN[C@H]1C[C@H](C)N(c2ccc(C(=O)Nc3cc(F)c4nc(C)cn4c3)c3nn(C)cc23)C1` (system: HTT mRNA).
stdout: > 10 µM

stdin: Give the reported AC50 for `CCNC1CCN(c2ccc(C(=O)Nc3cc(F)c4nc(C)cn4c3)c3[nH]ccc23)CC1` (system: HTT mRNA).
stdout: > 10 µM
